# Test system: E. coli BW25113 tolCp lux reporter
# assayProtocol: promoter activity interaction Z-score (Lux/OD deviation from empty-vector control); higher = stronger promoter induction by the compound
# statedConditions: 1 µg/ml; genetic background: wild type
Given measured promoter activity interaction Z-score, output Met if it is greater than or equal to -0.6 and Not met if not.

compound: C/C(=C\C(=O)OCCCCCCCCC(=O)O)C[C@@H]1OC[C@H](C[C@@H]2O[C@H]2[C@@H](C)[C@H](C)O)[C@@H](O)[C@H]1O [Pseudomonic acid]
classification: Met

compound: CC1(C)S[C@@H]2[C@H](NC(=O)[C@H](N)c3ccc(O)cc3)C(=O)N2[C@H]1C(=O)O [Amoxicillin]
classification: Met

compound: CO[C@H]1/C=C/O[C@@]2(C)Oc3c(C)c(O)c4c(O)c(c(/C=N/N5CCN(C)CC5)c(O)c4c3C2=O)NC(=O)/C(C)=C\C=C\[C@H](C)[C@H](O)[C@@H](C)[C@@H](O)[C@@H](C)[C@H](OC(C)=O)[C@@H]1C [Rifampicin]
classification: Not met

compound: O=C(N[C@H](CO)[C@H](O)c1ccc([N+](=O)[O-])cc1)C(Cl)Cl [Chloramphenicol]
classification: Met

compound: NC1CONC1=O (stereo unspecified) [Cycloserine D]
classification: Met

The origin of these recorded values is the supplement of paper PMC12282887.
